- Test target: T1, TRBP-ΔC-RBD1-Null (UniProt Q15633-2 9-215, K23A;K59A;K60A)
- T1 sequence: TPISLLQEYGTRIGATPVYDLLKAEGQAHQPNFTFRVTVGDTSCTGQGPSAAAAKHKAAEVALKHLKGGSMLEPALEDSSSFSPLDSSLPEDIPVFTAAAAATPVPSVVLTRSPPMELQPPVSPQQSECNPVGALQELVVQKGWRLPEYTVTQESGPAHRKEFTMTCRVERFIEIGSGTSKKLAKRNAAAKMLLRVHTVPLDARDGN
- Assay summary: EMSA; apparent Kd; nH 3.0; 50 mM sodium cacodylate pH 7.0, 50 mM potassium glutamate, 5% glycerol; EMSA 0.5 pM RNA, 30 min at room temperature, gel 0.25X TBE at 10 C; CD at 10 C with 5-15 uM RNA
- Condition label: protein: recombinant; label: 5'-32P top strand (EMSA); blunt
Quantity measured: Kd (nM)
Reply with just the number (in nM).

[ask] Tell me Kd reported for ds33 (dsRNA) RNA 1: GGUCAGCAGUGCCUUAGCAGCACGUAAAUAUGG RNA 2: CCAUAUUUACGUGCUGCUAAGGCACUGCUGACC
[reply] 1220
